Data provenance: patent US9303012B2

pEC50 reference
# System name: human CB2 receptors (Homo sapiens (Human), UniProt P34972)
# Sequence (P34972 whole entry): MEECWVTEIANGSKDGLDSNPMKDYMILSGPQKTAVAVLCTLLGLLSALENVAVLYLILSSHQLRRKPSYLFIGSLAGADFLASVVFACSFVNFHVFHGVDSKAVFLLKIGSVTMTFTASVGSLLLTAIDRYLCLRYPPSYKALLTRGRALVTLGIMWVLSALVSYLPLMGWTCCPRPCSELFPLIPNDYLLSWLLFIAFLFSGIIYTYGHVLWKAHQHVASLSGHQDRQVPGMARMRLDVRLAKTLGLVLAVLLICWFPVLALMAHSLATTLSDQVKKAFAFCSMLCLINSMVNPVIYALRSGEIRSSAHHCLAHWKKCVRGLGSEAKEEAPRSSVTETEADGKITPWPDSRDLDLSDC
# Test method notes: functional cAMP assay, CHO cells expressing human CB2 receptors
As a rule, pEC50 stands for the negative log10 of the concentration, concentration in M.

NC(=O)C1C[S+]([O-])CN1C(=O)c1ccc(N2CC(F)(F)C2)c(OCC2CC2)n1 (centres unmarked) [Example 124] | 7.28
NC(=O)[C@@H]1C[C@H](F)CN1C(=O)c1ccc(C2CC2)c(OCC2CC2)n1 [Example 69] | 5.98
NC(=O)[C@@H]1CSCN1C(=O)c1ccc(N2CC(F)(F)C2)c(OCC2CC2)n1 [Example 112] | 7.70
CC(C)(C)OC(=O)N1CCC2(CCCN2C(=O)c2ccc(C3CC3)c(Cc3ccc(F)cc3)n2)CC1 [Example 111] | 8.10
CC(C)(C)N(CCC(N)=O)C(=O)c1ccc(N2CC(F)(F)C2)c(OCC2CC2)n1 [Example 72] | 6.18

pEC50 on human CB2 receptors (Homo sapiens (Human), UniProt P34972) for CC(C)(C)N(CC(N)=O)C(=O)c1ccc(N2CC(F)(F)C2)c(OCC2CC2)n1 [Example 35] is 6.74

pEC50 on human CB2 receptors (Homo sapiens (Human), UniProt P34972) for CC1(O)CCN(C(=O)c2ccc(N3CC(F)(F)C3)c(OCC3CC3)n2)C1 (centres unmarked) [Example 37] is 6.44

pEC50 on human CB2 receptors (Homo sapiens (Human), UniProt P34972) for NC(=O)C1CS(=O)(=O)CN1C(=O)c1ccc(C2(O)CCC2)c(OCC2CC2)n1 (centres unmarked) [Example 131] is 7.20

pEC50 on human CB2 receptors (Homo sapiens (Human), UniProt P34972) for O=C(c1ccc(N2CC(F)(F)C2)c(OCC2CC2)n1)N1CCCC12CC2 [Example 57] is 8.74

pEC50 on human CB2 receptors (Homo sapiens (Human), UniProt P34972) for O=C(c1ccc(N2CC(F)(F)C2)c(OCC2CC2)n1)N1CCC2(CCCO2)C1 (centres unmarked) [Example 100] is 7.68

pEC50 on human CB2 receptors (Homo sapiens (Human), UniProt P34972) for CC1(C)CCN(C(=O)c2ccc(C3CC3)c(OCC3CCCO3)n2)CC1 (centres unmarked) [Example 43] is 7.46

pEC50 on human CB2 receptors (Homo sapiens (Human), UniProt P34972) for CC1(C)COCN1C(=O)c1ccc(OC(F)(F)F)c(OCC2CC2)n1 [Example 48] is 6.97

pEC50 on human CB2 receptors (Homo sapiens (Human), UniProt P34972) for COC(=O)C1CCCN1C(=O)c1ccc(N2CC(F)(F)C2)c(OCC2CC2)n1 (centres unmarked) [Example 108] is 6.81

pEC50 on human CB2 receptors (Homo sapiens (Human), UniProt P34972) for O=C(c1ccc(C2CC2)c(Cc2ccc(F)cc2)n1)N1CCCC12CCNCC2 [Example 113] is 6.67

pEC50 on human CB2 receptors (Homo sapiens (Human), UniProt P34972) for Cc1nc(C(C2CC2)N(C)C(=O)c2ccc(C3CC3)c(OCC3CCOCC3)n2)no1 (centres unmarked) [Example 33] is 7.26

pEC50 on human CB2 receptors (Homo sapiens (Human), UniProt P34972) for CN(C(=O)c1ccc(C(F)(F)F)c(OCC2CCCO2)n1)C(C)(C)C (centres unmarked) [Example 15] is 6.60

pEC50 on human CB2 receptors (Homo sapiens (Human), UniProt P34972) for O=C(c1ccc(N2CC(F)(F)C2)c(OCC2CC2)n1)N1CC2(COC2)C1 [Example 11] is 6.44
